Every entry's value here was drawn from PubChem BioAssay AID330.

Tested on: P388 leukemia ip, CD2F1 mice, survival T/C
Assay: NCI In Vivo Anticancer Drug Screen. Data for tumor model P388 Leukemia (intraperitoneal) in CD2F1 (CDF1) mice
Conditions: endpoint: median survival time; dose: 50.0 mg/kg/injection; schedule: Q01DX009 (ip); vehicle: saline; higher = longer survival
Inconclusive results and toxic doses are left out.
As shown below, each of these compounds has a reported T/C value.

// query T/C value for entry C/C=C(\C)C(N)=O
90 % of control

// query T/C value for entry COc1ccc2c(N)cccc2c1
92 % of control

// query T/C value for entry Nc1ccc(S(=O)(=O)F)cc1Cl
100 % of control

// query T/C value for entry CC(=O)c1ccc(OCc2ccccc2)cc1OCc1ccccc1
97 % of control

// query T/C value for entry O=C(O)CN1CC(=O)N(c2ccccc2)C1=S
101 % of control

----------
Tested on: P388 leukemia ip, CD2F1 mice, survival T/C
Assay: NCI In Vivo Anticancer Drug Screen. Data for tumor model P388 Leukemia (intraperitoneal) in CD2F1 (CDF1) mice
Conditions: endpoint: median survival time; dose: 200.0 mg/kg/injection; schedule: Q01DX005 (ip); vehicle: Klucel (hydroxypropylcellulose) (HPC); higher = longer survival
Inconclusive results and toxic doses are left out.
As shown below, each of these compounds has a reported T/C value.

// query T/C value for entry Nc1nnc2cc(Cl)ccc2n1
98 % of control

// query T/C value for entry O=C1C=Cn2cc(-c3ccccc3)c(-c3ccccc3)c21
95 % of control

// query T/C value for entry CCc1nc(N)nc(N)c1-c1ccc(N(C)Cc2ccccc2)c(N)c1
103 % of control

----------
As shown below, each of these compounds has a reported T/C value.
Tested on: P388 leukemia ip, CD2F1 mice, survival T/C
Experiment: NCI In Vivo Anticancer Drug Screen. Data for tumor model P388 Leukemia (intraperitoneal) in CD2F1 (CDF1) mice
Details: endpoint: median survival time; dose: 200.0 mg/kg/injection; schedule: Q01DX005 (ip); vehicle: saline with Tween-80; higher = longer survival
Toxic doses and inconclusive results are not listed.

1. Cc1noc(NS(=O)(=O)c2ccc(N=c3c4ccccc4n(Cc4ccccc4)c4ccccc34)cc2)c1C; 87 % of control
2. Cc1ccc(C)c(C(O)(c2cc(C)ccc2C)C2(O)CCCCC2)c1; 97 % of control

// query T/C value for entry COc1cc(C2c3cc(O)c(OC)cc3CC(C(N)=O)C2CO)ccc1O (stereo not given)
98 % of control

// query T/C value for entry CC1(C)CC(=O)c2c(oc3cc4c5c(oc4cc23)CC(C)(C)CC5=O)C1
92 % of control

// query T/C value for entry O=C1c2ccccc2C(=O)N1CC(O)COCc1ccccc1 (stereo not given)
100 % of control

----------
Test system: P388 leukemia ip, CD2F1 mice, survival T/C
Test: NCI In Vivo Anticancer Drug Screen. Data for tumor model P388 Leukemia (intraperitoneal) in CD2F1 (CDF1) mice
Conditions: endpoint: median survival time; dose: 25.0 mg/kg/injection; schedule: Q01DX009 (ip); vehicle: Klucel (hydroxypropylcellulose) (HPC); higher = longer survival
Inconclusive results and toxic doses are left out.
As shown below, each of these compounds has a reported T/C value.

1) Cn1c2nc3ccccc3c-2nc2ccccc21; 99 % of control
2) COC1/C=C\OC2(C)Oc3c(C)c(O)c4c(c3C2=O)C2=NC(C)(C)N(c3ccccc3)C2=C(NC(=O)/C(C)=C\C=C\C(C)C(O)C(C)C(O)C(C)C(OC(C)=O)C1C)C4=O (centres undefined); 100 % of control
3) COc1ccc(-c2c3c(c(O)c4cc5c(cc24)OCO5)COC3=O)cc1OC; 104 % of control
4) O=c1[nH]c(=S)[nH]c2c(=O)[nH]c(=S)[nH]c12; 101 % of control
5) O=C(/C=C/c1cccnc1)/C=C/c1cccnc1; 124 % of control
6) CCCCCCCCC(=O)c1c(OC)oc(/C=N/NC(N)=O)cc1=O; 92 % of control
7) COc1ccc(-c2c(C#N)cnc(C)c2C)c(O)c1OC; 96 % of control
8) COC(C)(C)O/N=C(\C[P+](c1ccccc1)(c1ccccc1)c1ccccc1)c1ccc(Cl)cc1; 99 % of control
9) COC1/C=C/OC2(C)Oc3c(C)c(O)c4c(c3C2=O)C(N)=C(Nc2ccccc2)C(=NC(=O)C(C)=CC=CC(C)C(O)C(C)C(O)C(C)C(OC(C)=O)C1C)C4=O (centres undefined); 97 % of control
10) COc1ccc2c(c1)CCC1(C)CC(=O)C=C21 (centres undefined); 108 % of control

Give P388 leukemia ip, CD2F1 mice, survival T/C T/C for COc1ccc2c(oc(=O)c3c(Cl)nc(C)c(C)c32)c1OC
98 % of control

Give P388 leukemia ip, CD2F1 mice, survival T/C T/C for N#CC1(C#N)C2C=CC(C3CC=CC32)C1(C#N)C#N (centres undefined)
108 % of control

Give P388 leukemia ip, CD2F1 mice, survival T/C T/C for COc1cccc2c(NCCCCCO[N+](=O)[O-])cc[n+](C)c12
110 % of control

Give P388 leukemia ip, CD2F1 mice, survival T/C T/C for O=C(CSc1nc(-c2ccccc2)c(-c2ccccc2)o1)N1CCOCC1
105 % of control
